Value source: the supplement of paper PMC12645437

- ASSAYED SYSTEM: T1, CRBN, Q96SW2;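 further: pooled lentiviral library of zinc finger degron-EGFP fusions in mCherry-positive Jurkat cells, FACS-sorted after compound exposure, with degron abundance counted by next-generation sequencing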
- T1 chain: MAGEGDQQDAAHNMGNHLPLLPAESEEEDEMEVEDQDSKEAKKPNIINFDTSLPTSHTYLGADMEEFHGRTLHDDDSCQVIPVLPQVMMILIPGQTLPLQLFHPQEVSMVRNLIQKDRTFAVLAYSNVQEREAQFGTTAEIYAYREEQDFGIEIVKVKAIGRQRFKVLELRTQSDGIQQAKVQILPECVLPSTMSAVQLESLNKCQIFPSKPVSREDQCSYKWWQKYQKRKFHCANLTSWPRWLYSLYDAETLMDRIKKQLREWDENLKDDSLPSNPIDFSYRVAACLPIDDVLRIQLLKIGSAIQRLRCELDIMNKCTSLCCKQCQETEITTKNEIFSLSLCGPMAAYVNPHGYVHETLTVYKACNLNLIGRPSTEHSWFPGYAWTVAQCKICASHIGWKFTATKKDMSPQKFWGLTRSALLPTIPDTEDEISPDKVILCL
- ASSAY EXPLANATION: log2 fold change of degron read counts, EGFP-low vs EGFP+ sorted cells (limma voom), compound-induced degradation; higher = more compound-induced degradation of the degron-EGFP fusion; degrons are variants of IKZF1/3 zinc finger 2; compound dose not given here
- CONDITION SUMMARY: Jurkat; 18 h; compound: compound 33 (diphenyl IMiD analogue)
In all, about 8,300 sequences were measured (“log2 fold change of degron read counts, EGFP-low vs EGFP+ sorted cells (limma voom), compound-induced degradation”: median about -1.1, highest 2% from about 3.2 on). The full list was thinned out, with the highest values kept by preference.
Give measured log2 fold change of degron read counts for each item. Keep answers brief.

- RECORD SEQUENCE: "FVCEVCGAPFTQKGNLLRHIKL [46F_47V_49E_50V_52G_53A_54P_55F_67L_, Q9UKT9]"
  log2 fold change of degron read counts: 2.24
- RECORD SEQUENCE: "FLCNVCGAPFTQKGNLLRHIKL [46F_47L_49N_50V_52G_53A_54P_55F_67L_, Q9UKT9]"
  log2 fold change of degron read counts: 1.47

Hi, could you look up log2 fold change of degron read counts for each item in my list?
1. FGCPICGASFTQKGNLLRHIKL [46F_47G_49P_50I_52G_53A_54S_55F_67L_, Q9UKT9]
2. FSCEICGRSFTQKGNLLRHIKL [46F_47S_49E_50I_52G_53R_54S_55F_67L_, Q9UKT9]
3. FCCEVCGAPFTQKGNLLRHIKL [46F_47C_49E_50V_52G_53A_54P_55F_67L_, Q9UKT9]
4. FYCNVCGAVFTQKGNLLRHIKL [46F_47Y_49N_50V_52G_53A_54V_55F_67L_, Q9UKT9]

Output line:
1: 2.49; 2: -1.36; 3: 0.726; 4: 0.445

For every item in the list below, what is its measured log2 fold change of degron read counts?
1. FWCDICGALFTQKGNLLRHIKL [46F_47W_49D_50I_52G_53A_54L_55F_67L_, Q9UKT9]
2. FYCEVCGAPFTQKGNLLRHIKL [46F_47Y_49E_50V_52G_53A_54P_55F_67L_, Q9UKT9]

Output line:
[0.921, 2.63]

Kindly give each listed record's log2 fold change of degron read counts.
1. FQCNVCGAVFTQKGNLLRHIKL [46F_47Q_49N_50V_52G_53A_54V_55F_67L_, Q9UKT9]
2. FICNVCGAVFTQKGNLLRHIKL [46F_47I_49N_50V_52G_53A_54V_55F_67L_, Q9UKT9]
3. FFCPVCGAPFTQKGNLLRHIKL [46F_47F_49P_50V_52G_53A_54P_55F_67L_, Q9UKT9]
4. FGCEVCGAPFTQKGNLLRHIKL [46F_47G_49E_50V_52G_53A_54P_55F_67L_, Q9UKT9]

Output line:
1.22
0.455
2.23
-1.51
